# TGT: T1, human Nectin-2 extracellular domain (amino acid residues 1-360 of human Nectin-2) fused to hFc (human, UniProt Q92692 32-360)
# T1 construct: Bought; also called hNectin-2-ECD-hFc; NECTIN2-ECD-hFc; not shown: human Fc (hFc)
# T1 sequence: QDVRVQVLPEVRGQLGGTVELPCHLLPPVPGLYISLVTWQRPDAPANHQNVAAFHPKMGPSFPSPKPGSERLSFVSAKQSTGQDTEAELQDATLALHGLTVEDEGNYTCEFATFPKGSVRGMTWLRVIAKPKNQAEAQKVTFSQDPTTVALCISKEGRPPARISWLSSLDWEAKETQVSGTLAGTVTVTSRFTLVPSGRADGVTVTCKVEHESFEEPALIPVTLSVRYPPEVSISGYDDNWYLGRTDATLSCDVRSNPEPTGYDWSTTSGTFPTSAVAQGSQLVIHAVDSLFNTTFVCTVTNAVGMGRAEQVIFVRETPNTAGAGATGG
# EXPERIMENT SUMMARY: ELISA, absorbance at 405 nm, one condition per Fab and antigen

BINDER	binding result
Fab_2810 (Fab, V domains shown, Chimeric rabbit/human Fab; also called E2810; mAb_2810) VH: QEQLEESGGRLVTPGTPLTLTCTASGFSLTNYYMTWVRQAPGKGLEWIGTIYAGTGSTWYASWVKGRFTISKTSTTVDLKITSPTTEDTATYFCVRGYLGWSSGIENIWGPGTLVTVSS VL: SFVLTQPASVQVNLGQTVSLTCTADTLSRSYASWYQQKPGQAPVLLIYRDTSRPSGVPDRFSGSSSGNTATLTISGAQAGDEADYYCATSDGSGSTFHFVFGGGTQLTVTG	no binding
Fab_1955 (Fab, V domains shown, Chimeric rabbit/human Fab; also called P1955; clone 1955) VH: AQSLEESGGRLVTPGTPLTLTCTASGFSLYSYDMSWVRQAPGKGLEWIGLIDGGGNTYYASWAKGRFTISKTSSTTVDLKMTSLTTEDTATYFCARELWPAYSSGAFNIWGPGTLVTISS VL: SFVLTQPASVQVNLGQTVSLTCTADTLSRRYASWYQQKPGQAPVLLIYRDTRRPSGVPDRFSGSSSGNTATLTISGAQAGDEADYYCVTTDGSGSSYLVVFGGGTQLTVTG	no binding
Fab_11 (Fab, V domains shown, Chimeric rabbit/human Fab; also called P11; mAb_11) VH: AQSLEESGGRLVTPGTPLTLTCTVSGFSLSSYAMTWVRQAPGEGLEWIGTIGAGGSPYYASWAKGRFTISKTATTVNLKIISPTTEDTATYFCAREGGGSYYFDLWGPGTLVTVSS VL: SFVLTQPASVQVNLGQTVSLTCTADTLSRSYASWYQQKPGQAPVLLIYRDTSRPSGVPDRFSGSSSGNTATLTISGAQAGDEADYYCATSDGSGSTFHFVFGGGTQLTVTG	no binding
Fab_130 (Fab, V domains shown, Chimeric rabbit/human Fab; also called P130; clone 130) VH: QEQQKESGGGLFKPTDTLTLTCTVSGFSLSSNAISWVRQAPGNGLEWIGAIDNSGSAYYATWAKGRSTITRATNLNTVTLKMTSVTAADTATYFCAREDVRADSIDLNMWGPGTLVTISS VL: SFVLTQPASVQVNLGQTVSLTCTADTLSRSYASWYQQKPGQAPVLLIYRDTSRPSGVPDRFSGSSSGNTATLTISGAQAGDEADYYCATSDGSGSSYQFVFGGGTQLTVTG	no binding
